Molecular target: BRD4-NUT (Homo sapiens, UniProt O60885+Q86Y26)
Construct: endogenous in cells; host or cells: RPMI2650
Assay: BRD4-NUT protein degradation by western blotting in RPMI2650 cells (24 h treatment)
Assay type: cell-based
Details: RPM12650, read-out: BRD4-NUT (DC50)
measured-attribute: DC50

IN: Indicate the recorded DC50 value for this compound: CC[C@@H]1c2nnc(C)n2-c2cnc(Nc3ccc(C(=O)N4CCN(CCNc5cccc6c(=O)n(C7CCC(=O)NC7=O)ncc56)CC4)cc3OC)nc2N1CC1CCCCC1 (some centres unmarked)
OUT: 100 to 1000 nM

IN: Fill in reported DC50 for this entry: CC[C@@H]1c2nnc(C)n2-c2cnc(Nc3ccc(C(=O)N4CCO[C@@H](CN5CCN(c6ccc7c(=O)n(C8CCC(=O)NC8=O)nc(C)c7c6)CC5)C4)cc3OC)nc2N1CC1CCCCC1 (some centres unmarked)
OUT: < 100 nM

IN: State its DC50 for this compound: CC[C@@H]1c2nnc(C)n2-c2cnc(Nc3ccc(C(=O)NC4CCN(C(=O)CN5CCN(c6ccc7c(=O)n(C8CCC(=O)NC8=O)nc(C)c7c6)CC5)CC4)cc3OC)nc2N1CC1CCCCC1 (some centres unmarked)
OUT: < 100 nM

IN: Input CC[C@@H]1c2nnc(C)n2-c2cnc(Nc3ccc(C(=O)N4CCN(c5cccc6c(C)nn(C7CCC(=O)NC7=O)c(=O)c56)CC4)cc3OC)nc2N1CC1CCCCC1 (some centres unmarked) , output reported DC50.
OUT: < 100 nM

IN: Report measured DC50; entry is CC[C@@H]1c2nnc(C)n2-c2cnc(Nc3ccc(C(=O)NCCNc4cccc5cnn(C6CCC(=O)NC6=O)c(=O)c45)cc3OC)nc2N1CC1CCCCC1 (some centres unmarked)
OUT: < 100 nM

----------
Molecular target: BRD4-NUT (Homo sapiens, UniProt O60885+Q86Y26)
Construct: endogenous in cells; host or cells: RPMI2650
Experiment: BRD4-NUT protein degradation by western blotting in RPMI2650 cells (24 h treatment)
Assay type: cell-based
Details: RPM12650, read-out: BRD4-NUT (DC50)
Would you mind telling me the reported DC50 of each entry?

IN: Report DC50, nothing else, for this compound: CC[C@@H]1c2nnc(C)n2-c2cnc(Nc3ccc(C(=O)N4CCN(c5ccc(NC6CCC(=O)NC6=O)cc5F)CC4)cc3OC)nc2N1CC1CCCCC1 (stereo partly drawn)
OUT: < 0.1 µM

IN: Please list DC50 recorded for the compound CC[C@@H]1c2nnc(C)n2-c2cnc(Nc3ccc(C(=O)NC4CCN(c5ccc(NC6CCC(=O)NC6=O)cc5F)CC4)cc3OC)nc2N1CC1CCCCC1 (stereo partly drawn)
OUT: < 0.1 µM

IN: Give DC50 for CC[C@@H]1c2nnc(C)n2-c2cnc(Nc3ccc(C(=O)N4CCN(CCNc5ccc6c(C)nn(C7CCC(=O)NC7=O)c(=O)c6c5)CC4)cc3OC)nc2N1CC1CCCCC1 (stereo partly drawn)
OUT: < 0.1 µM

----------
Biological target: BRD4-NUT (Homo sapiens, UniProt O60885+Q86Y26)
Construct: endogenous in cells; host or cells: RPMI2650
Assay: BRD4-NUT protein degradation by western blotting in RPMI2650 cells (24 h treatment)
Assay type: cell-based
Conditions: RPM12650, read-out: BRD4-NUT (DC50)
Task for the reader: assign each of the following molecules its reported DC50.

IN: Let me know recorded DC50 for CC[C@@H]1c2nnc(C)n2-c2cnc(Nc3ccc(C(=O)N4CCN(CC5CCN(c6ccc(NC7CCC(=O)NC7=O)cc6F)CC5)CC4)cc3OC)nc2N1CC1CCCCC1 (some centres unmarked) , thanks.
OUT: < 100 nM

IN: Please list DC50 recorded for the molecule CC[C@@H]1c2nnc(C)n2-c2cnc(Nc3ccc(C(=O)NC4CCN(CCCN5CCN(c6ccc(NC7CCC(=O)NC7=O)cc6F)CC5)CC4)cc3OC)nc2N1CC1CCCCC1 (some centres unmarked)
OUT: > 1000 nM

IN: Give the measured DC50 for CC[C@@H]1c2nnc(C)n2-c2cnc(Nc3ccc(C(=O)NC4CCN(CCOCCOc5ccc(NC6CCC(=O)NC6=O)cc5F)CC4)cc3OC)nc2N1CC1CCCCC1 (some centres unmarked)
OUT: > 1000 nM

IN: Specify DC50 for CC[C@@H]1c2nnc(C)n2-c2cnc(Nc3ccc(C(=O)N4CCN(CC5CCN(c6ccc7c(=O)n(C8CCC(=O)NC8=O)nc(C)c7c6)CC5)CC4)cc3OC)nc2N1CC1CCCCC1 (some centres unmarked) and stop.
OUT: < 100 nM

IN: Please indicate DC50 recorded for CCC1c2nnc(C)n2-c2cnc(Nc3ccc(C(=O)NC4CCN(CCN5CCN(c6ccc(NC7CCC(=O)NC7=O)cc6F)CC5)CC4)cc3OC)nc2N1CC1CCCCC1 (centres unmarked)
OUT: < 100 nM

IN: Indicate the recorded DC50 value for this molecule: CC[C@@H]1c2nnc(C)n2-c2cnc(Nc3ccc(C(=O)N4CCC(CN5CCN(c6ccc7c(=O)n(C8CCC(=O)NC8=O)nc(C)c7c6)CC5)CC4)cc3OC)nc2N1CC1CCCCC1 (some centres unmarked)
OUT: 100 to 1000 nM

IN: Complete the entry with DC50 for CC[C@H]1c2nnc(C)n2-c2cnc(Nc3ccc(C(=O)N4CCN(c5ccc(NC6CCC(=O)N(C)C6=O)cc5F)CC4)c(OC)c3)nc2N1CC1CCCCC1 (some centres unmarked)
OUT: > 1000 nM

IN: Determine its reported DC50: CCC1c2nnc(C)n2-c2cnc(Nc3ccc(C(=O)NC4CCN(CCN5CCN(c6ccc7c(=O)n(C8CCC(=O)NC8=O)nc(C)c7c6)CC5)CC4)cc3OC)nc2N1CC1CCCCC1 (centres unmarked)
OUT: < 100 nM

IN: State, in one line, measured DC50 of CC[C@H]1c2nnc(C)n2-c2cnc(Nc3ccc(C(=O)NC4CCN(CCC5CCN(c6ccc(NC7CCC(=O)NC7=O)cc6F)CC5)CC4)cc3OC)nc2N1CC1CCCCC1 (some centres unmarked) [ICT-0001564]
OUT: > 1000 nM

IN: Name the recorded DC50 of the molecule listed here: CC[C@@H]1c2nnc(C)n2-c2cnc(Nc3ccc(C(=O)N4CCC(N5CCN(c6ccc7c(=O)n(C8CCC(=O)NC8=O)nc(C)c7c6)CC5)CC4)cc3OC)nc2N1CC1CCCCC1 (some centres unmarked)
OUT: < 100 nM

IN: Report DC50 for CC[C@@H]1c2nnc(C)n2-c2cnc(Nc3ccc(C(=O)N4CCN(CCNc5cccc6c(C)nn(C7CCC(=O)NC7=O)c(=O)c56)CC4)cc3OC)nc2N1CC1CCCCC1 (some centres unmarked)
OUT: < 100 nM

These measurements were taken from patent EP4640686A1.
